protocol.text: Degradation of prodrugs and release of parent drug in rat plasma
Format: in vitro ADME
assay.context: male, Hannover-Janvier RjHan, rat plasma (Li-heparin), 37° C., 0.17 h, percent area of prodrug at t0
measure: recovery at 0.17 h, 39 µg/mL
Kindly format the answer as number then unit.

Below, 4 compounds whose answers are already recorded.
Entry under test: N#CC1(N(COC(=O)Cc2ccc(C(=O)O)cc2)C(=O)c2cc(-c3cnn(-c4c(Cl)cc(C(F)(C(F)(F)F)C(F)(F)F)cc4OC(F)(F)F)c3)ccc2Cl)CC1 . Its recovery at 0.17 h, 39 µg/mL was 94%

Entry under test: N#CC1(N(COC(=O)[C@H]2CC[C@H](C(=O)O)CC2)C(=O)c2cc(-c3cnn(-c4c(Cl)cc(C(F)(C(F)(F)F)C(F)(F)F)cc4OC(F)(F)F)c3)ccc2Cl)CC1 . Its recovery at 0.17 h, 39 µg/mL was 98%

Entry under test: N#CC1(N(COC(=O)CCCC(=O)O)C(=O)c2cc(-c3cnn(-c4c(Cl)cc(C(F)(C(F)(F)F)C(F)(F)F)cc4OC(F)(F)F)c3)ccc2Cl)CC1 . Its recovery at 0.17 h, 39 µg/mL was 89%

Entry under test: Cn1nc(C(F)(F)C(F)(F)F)c(C(F)(F)F)c1-n1cc(-c2ccc(Cl)c(C(=O)N(COC(=O)CCCC(=O)O)C3(C#N)CC3)c2)cn1 . Its recovery at 0.17 h, 39 µg/mL was 73%

Moving on to another compound below.
Entry under test: Cn1nc(C(F)(F)C(F)(F)F)c(C(F)(F)F)c1-n1cc(-c2ccc(Cl)c(C(=O)N(COC(=O)[C@H]3CC[C@H](C(=O)O)CC3)C3(C#N)CC3)c2)cn1 . Its recovery at 0.17 h, 39 µg/mL was 91%

###

protocol.text: Measurement of stability of prodrugs in buffer at pH 7.4
Format: physicochemical
assay.context: PBS buffer pH 7.4, 37° C., HPLC peak area, read-out: % Recovery after 24 h (stability at pH 7.4)
Protocol: Preparation of the PBS buffer solution pH 7.4: 90 g sodium chloride, 13.61 g potassium dihydrogen phosphate, 83.35 g 1M aqueous sodium hydroxide were dissolved in water. […] 0.15 mg of the test compound were dissolved in 0.1 mL dimethylsulfoxide and 0.4 mL acetonitrile. […] The sample solution was analysed by HPLC (method 8) to determine the amount of the test compound at a particular time over a period of 24 h at 37° C. The peak areas, given as percentage of total area, are used for quantification. […]
measure: recovery at 24 h, 0.1 mg/mL (%)
I only need the number, in %, no unit after it.

Below, 4 compounds whose answers are already recorded.
Entry under test: Cn1nc(C(F)(F)C(F)(F)F)c(C(F)(F)F)c1-n1cc(-c2ccc(Cl)c(C(=O)N(COC(=O)/C=C/C(=O)O)C3(C#N)CC3)c2)cn1 [Example 7] . Its recovery at 24 h, 0.1 mg/mL was 96

Entry under test: N#CC1(N(COC(=O)[C@H]2CC[C@H](C(=O)O)CC2)C(=O)c2cc(-c3cnn(-c4c(Cl)cc(C(F)(C(F)(F)F)C(F)(F)F)cc4OC(F)(F)F)c3)ccc2Cl)CC1 [Example 11] . Its recovery at 24 h, 0.1 mg/mL was 100

Entry under test: Cn1nc(C(F)(F)C(F)(F)F)c(C(F)(F)F)c1-n1cc(-c2ccc(Cl)c(C(=O)N(COC(=O)[C@H]3CC[C@H](C(=O)O)CC3)C3(C#N)CC3)c2)cn1 [Example 12] . Its recovery at 24 h, 0.1 mg/mL was 100

Entry under test: N#CC1(N(COC(=O)c2ccc(C(=O)O)cc2)C(=O)c2cc(-c3cnn(-c4c(Cl)cc(C(F)(C(F)(F)F)C(F)(F)F)cc4OC(F)(F)F)c3)ccc2Cl)CC1 [Example 3] . Its recovery at 24 h, 0.1 mg/mL was 99

***
Entry under test: N#CC1(N(COC(=O)Cc2ccc(C(=O)O)cc2)C(=O)c2cc(-c3cnn(-c4c(Cl)cc(C(F)(C(F)(F)F)C(F)(F)F)cc4OC(F)(F)F)c3)ccc2Cl)CC1 [Example 15] . Its recovery at 24 h, 0.1 mg/mL was 100

Entry under test: CC(C)(CC(=O)OCN(C(=O)c1cc(-c2cnn(-c3c(Cl)cc(C(F)(C(F)(F)F)C(F)(F)F)cc3OC(F)(F)F)c2)ccc1Cl)C1(C#N)CC1)C(=O)O [Example 14] . Its recovery at 24 h, 0.1 mg/mL was 63

###

protocol.text: Measurement of solubility in buffer at pH 6.5
Assay type: physicochemical
assay.context: aqueous buffer, kinetic from dmso stock; PBS buffer pH 6.5, shaken 24 h at rt, LC-MSMS; read-out: Solubility of example compounds at pH 6.5
measure: solubility at 24 h
Kindly format the answer as number then unit.

Entry under test: Cn1nc(C(F)(F)C(F)(F)F)c(C(F)(F)F)c1-n1cc(-c2ccc(Cl)c(C(=O)N(COC(=O)c3ccc(C(=O)O)cc3)C3(C#N)CC3)c2)cn1 [Example 10] . Its solubility at 24 h was 0.031 mg/mL

***
Entry under test: N#CC1(N(COC(=O)c2ccc(C(=O)O)cc2)C(=O)c2cc(-c3cnn(-c4c(Cl)cc(C(F)(C(F)(F)F)C(F)(F)F)cc4OC(F)(F)F)c3)ccc2Cl)CC1 [Example 3] . Its solubility at 24 h was 0.003 mg/mL

Entry under test: Cn1nc(C(F)(F)C(F)(F)F)c(C(F)(F)F)c1-n1cc(-c2ccc(Cl)c(C(=O)N(COC(=O)[C@H]3CC[C@H](C(=O)O)CC3)C3(C#N)CC3)c2)cn1 [Example 12] . Its solubility at 24 h was 0.046 mg/mL

Entry under test: Cn1nc(C(F)(F)C(F)(F)F)c(C(F)(F)F)c1-n1cc(-c2ccc(Cl)c(C(=O)N(COC(=O)CCCC(=O)O)C3(C#N)CC3)c2)cn1 [Example 4] . Its solubility at 24 h was 0.179 mg/mL

Entry under test: N#CC1(N(COC(=O)[C@H]2CC[C@H](C(=O)O)CC2)C(=O)c2cc(-c3cnn(-c4c(Cl)cc(C(F)(C(F)(F)F)C(F)(F)F)cc4OC(F)(F)F)c3)ccc2Cl)CC1 [Example 11] . Its solubility at 24 h was 0.005 mg/mL

Entry under test: Cn1nc(C(F)(F)C(F)(F)F)c(C(F)(F)F)c1-n1cc(-c2ccc(Cl)c(C(=O)N(COC(=O)CC(C)(C)C(=O)O)C3(C#N)CC3)c2)cn1 [Example 2] . Its solubility at 24 h was 0.071 mg/mL

###

protocol.text: Degradation of prodrugs and release of parent drug in dog plasma
Assay type: in vitro ADME
assay.context: male, Beagle, dog plasma (EDTA stabilized), 37° C., 1 h, percent area of prodrug at t0
measure: recovery at 1 h, 39 µg/mL
Kindly format the answer as number then unit.

Entry under test: N#CC1(N(COC(=O)/C=C/C(=O)O)C(=O)c2cc(-c3cnn(-c4c(Cl)cc(C(F)(C(F)(F)F)C(F)(F)F)cc4OC(F)(F)F)c3)ccc2Cl)CC1 . Its recovery at 1 h, 39 µg/mL was 51%

###

protocol.text: Evaluation of pharmacokinetics in vivo (dog)
assay.context: plasma, sc, calculated based on AUC(0-t)norm, parent drug A normalised to 100%, read-out: Frel (relative bioavailability)
Protocol: Evaluation of Pharmacokinetics (In Vivo) To evaluate the pharmacokinetics of test substances in vivo, these test substances are dissolved in appropriate formulation vehicles (ethanol, dimethyl sulfoxide, PEG400, glycerol formal etc.), or mixtures thereof. The test substances are then administered to rats or dogs intravenously, orally or subcutaneously. […] The quantitative measurement of the test substances in the samples is performed using calibration curves in the respective matrices. […]
measure: bioavailability (%)
I only need the number, in %, no unit after it.

Entry under test: N#CC1(NC(=O)c2cc(-c3cnn(-c4c(Cl)cc(C(F)(C(F)(F)F)C(F)(F)F)cc4OC(F)(F)F)c3)ccc2Cl)CC1 [Parent Drug A, reference compound] . Its bioavailability was 100

###

protocol.text: Degradation of prodrugs and release of parent drug in dog plasma
Format: in vitro ADME
assay.context: male, Beagle, dog plasma (EDTA stabilized), 37° C., 2 h, percent area of prodrug at t0
measure: recovery at 2 h, 39 µg/mL (%)
I only need the number, in %, no unit after it.

Entry under test: N#CC1(N(COC(=O)/C=C/C(=O)O)C(=O)c2cc(-c3cnn(-c4c(Cl)cc(C(F)(C(F)(F)F)C(F)(F)F)cc4OC(F)(F)F)c3)ccc2Cl)CC1 [Example 13] . Its recovery at 2 h, 39 µg/mL was 18

###

protocol.text: Degradation of prodrugs and release of parent drug in dog plasma
Type: in vitro ADME
assay.context: male, Beagle, dog plasma (EDTA stabilized), 37° C., 0.17 h, percent area of prodrug at t0
measure: recovery at 0.17 h, 39 µg/mL (%)
I only need the number, in %, no unit after it.

Entry under test: N#CC1(N(COC(=O)/C=C/C(=O)O)C(=O)c2cc(-c3cnn(-c4c(Cl)cc(C(F)(C(F)(F)F)C(F)(F)F)cc4OC(F)(F)F)c3)ccc2Cl)CC1 [Example 13] . Its recovery at 0.17 h, 39 µg/mL was 95

Where these numbers come from: patent US20220306585A1
